target: recombinant human NUDT5 (Homo sapiens, UniProt Q9UKK9); assay: NUDT5 inhibitor activity by malachite green reporter assay; format: biochemical; conditions: Table 3; 6 nM NUDT5, 50 μM ADP-Ribose, 15 minutes at room temperature
pIC50: −log10 of the molar value.
quantity: pIC50

// below: answered molecules
Cc1cccc(-c2nnc(Cn3c(N4CCN(CCO)CC4)nc4c3c(=O)n(C)c(=O)n4C)o2)c1: 6.04
CCSc1nc2c(c(=O)n(C)c(=O)n2C)n1Cc1nnc(-c2ccc(Cl)c(Cl)c2)o1: 7.43
COc1nc2c(c(=O)n(C)c(=O)n2C)n1Cc1nnc(-c2ccc(Cl)c(Cl)c2)o1: 7.54
Cn1c(=O)c2c(nc(N3CCN(CCO)CC3)n2Cc2nnc(-c3ccc(Cl)c(Cl)c3)o2)n(C)c1=O: 6.98

I. CCCCCCN1CCN(c2nc3c(c(=O)n(C)c(=O)n3C)n2Cc2nnc(-c3cccc(C)c3)o2)CC1
II. Cn1c(=O)c2c(nc(N3CCCNCC3)n2Cc2nnc(-c3ccc(Cl)c(Cl)c3)o2)n(C)c1=O
Request: API: POST /compare with I and II ; response names the item with higher pIC50. Answer by quoting the chosen item's label.
Response: II

----------
biological target: recombinant human NUDT5 (Homo sapiens, UniProt Q9UKK9); assay: NUDT5 inhibitor activity by malachite green reporter assay; assay type: biochemical; conditions: Table 4; 6 nM NUDT5, 50 μM ADP-Ribose, 15 minutes at room temperature
pIC50: −log10 of the molar value.
quantity: pIC50

Cn1c(=O)c2c(nc(N3CCNC(=O)C3)n2Cc2nnc(-c3ccc(Cl)c(Cl)c3)o2)n(C)c1=O: 7.69

I. Cn1c(=O)c2c(nc(Cl)n2Cc2nnc(-c3ccc(C#N)cc3)o2)n(C)c1=O
II. Cn1c(=O)c2c(nc(N3CCN(C(=O)OC(C)(C)C)CC3)n2Cc2nnc(-c3ccc([N+](=O)[O-])cc3)o2)n(C)c1=O
III. CCOC(=O)c1cn2c(n1)CN(c1nc3c(c(=O)n(C)c(=O)n3C)n1Cc1nnc(-c3ccc(Cl)c(Cl)c3)o1)CC2
IV. Cn1c(=O)c2c(nc(NCC(=O)OC(C)(C)C)n2Cc2nnc(-c3ccc(Cl)c(Cl)c3)o2)n(C)c1=O
Request: Order the records by pIC50, with each subsequent value no larger than the one before. When ranking, write the labels in the order the request describes.
Response: IV, III, I, II

a. Cn1c(=O)c2c(nc(Cl)n2Cc2nc(-c3ccc(Cl)cc3)no2)n(C)c1=O
b. COc1cc(-c2nnc(Cn3c(N4CCNCC4)nc4c3c(=O)n(C)c(=O)n4C)o2)ccc1C
Request: Which record shows the lower pIC50: the first, a , or the second, b ? Field: selected label. Fill in the label of the entry you choose.
Response: a

----------
target: recombinant human NUDT5 (Homo sapiens); assay: NUDT5 inhibitor activity by malachite green reporter assay; type: biochemical; conditions: Table 4; 6 nM NUDT5, 50 μM ADP-Ribose, 15 minutes at room temperature
pIC50: −log10 of the molar value.
quantity: pIC50

COc1cc(-c2nnc(Cn3c(N4CC[C@@H](N(C)C)C4)nc4c3c(=O)n(C)c(=O)n4C)o2)ccc1C: 6.58

A. COc1cc(-c2nnc(Cn3c(SCCNC(=O)OC(C)(C)C)nc4c3c(=O)n(C)c(=O)n4C)o2)ccc1C
B. Cn1c(=O)c2c(nc(N3CCNCC3)n2Cc2nnc(-c3ccc(Cl)cc3)o2)n(C)c1=O
Request: Hi there, can you help? I need to know whether A or B has lower measured pIC50. Your answer should be the label attached to the chosen record.
Response: A
(A: 6.58, B: 7.00)

----------
target: recombinant human NUDT5 (Homo sapiens); experiment: NUDT5 inhibitor activity by malachite green reporter assay; type: biochemical; settings: Table 3; 6 nM NUDT5, 50 μM ADP-Ribose, 15 minutes at room temperature
quantity: IC50 (nM)

// known answers, use as guide
Cn1c(=O)c2c(nc(N3CCC(CN)CC3)n2Cc2nnc(-c3ccc(Cl)c(Cl)c3)o2)n(C)c1=O [Example 38]: 18.5
Cn1c(=O)c2c(nc(NC3CC3)n2Cc2nnc(-c3ccc(Cl)c(Cl)c3)o2)n(C)c1=O [Example 42]: 26.4

I. Cn1c(=O)c2c(nc(N3CCCC(O)C3)n2Cc2nnc(-c3ccc(Cl)c(Cl)c3)o2)n(C)c1=O (stereo not shown) [Example 44]
II. Cn1c(=O)c2c(nc(N3CCOCC3)n2Cc2nnc(-c3ccc(Cl)c(Cl)c3)o2)n(C)c1=O [Example 13]
Request: Smaller IC50 value, I vs II ? # reply format: chosen label
Response: I

----------
target: recombinant human NUDT5 (Homo sapiens); assay: NUDT5 inhibitor activity by malachite green reporter assay; type: biochemical; conditions: Table 3; 6 nM NUDT5, 50 μM ADP-Ribose, 15 minutes at room temperature
pIC50: −log10 of the molar value.
quantity: pIC50

Worked cases, pIC50 given:
Cn1c(=O)c2c(nc(N3CCN(C(=O)OC(C)(C)C)CC3)n2Cc2nnc(-c3ccc(Cl)c(Cl)c3)o2)n(C)c1=O [Example 14]: 6.79
CC(=O)N1CCN(c2nc3c(c(=O)n(C)c(=O)n3C)n2Cc2nnc(-c3ccc(Cl)c(Cl)c3)o2)CC1 [Example 32]: 7.12
Cn1c(=O)c2c(nc(N3CCC(CCO)CC3)n2Cc2nnc(-c3ccc(Cl)c(Cl)c3)o2)n(C)c1=O [Example 20]: 7.52

P. Cc1cccc(-c2nnc(Cn3c(N(C)C)nc4c3c(=O)n(C)c(=O)n4C)o2)c1 [Example 48]
Q. COc1nc2c(c(=O)n(C)c(=O)n2C)n1Cc1nnc(-c2cccc(C)c2)o1 [Example 52]
Request: Just curious, which one has the larger pIC50 reading, P or Q ? Kindly state the label of the option you pick.
Response: P
(P: 7.16, Q: 6.42)

----------
biological target: recombinant human NUDT5 (Homo sapiens, UniProt Q9UKK9); test: NUDT5 inhibitor activity by malachite green reporter assay; type: biochemical; settings: Table 4; 6 nM NUDT5, 50 μM ADP-Ribose, 15 minutes at room temperature
pIC50: −log10 of the molar value.
quantity: pIC50

Sample records with pIC50:
Cn1c(=O)c2c(nc(-n3ccnc3)n2Cc2nnc(-c3ccc(Cl)c(Cl)c3)o2)n(C)c1=O: 7.24
Cn1c(=O)c2c(nc(N3CCNCC3)n2Cc2nnc(-c3ccc(CS(C)(=O)=O)cc3)o2)n(C)c1=O: 4.61
Cn1c(=O)c2c(nc(Cl)n2Cc2nnc(-c3ccc(C(F)(F)F)cc3)o2)n(C)c1=O: 6.32
Cn1c(=O)c2c(nc(Cl)n2Cc2nnc(-c3ccc(Cl)nc3)o2)n(C)c1=O: 5.86
Cc1ccc(-c2nnc(Cn3c(N4CCNCC4)nc4c3c(=O)n(C)c(=O)n4C)o2)cn1: 6.67

1. Cn1c(=O)c2c(nc(N3CCNCC3)n2Cc2nnc(-c3ccc(C#N)cc3)o2)n(C)c1=O
2. Cc1cc(-c2nnc(Cn3c(N4CCNCC4)nc4c3c(=O)n(C)c(=O)n4C)o2)ccc1Cl
Request: Which entry shows the lesser value of pIC50 here, 1 or 2 ? Response format: the label of the selected entry.
Response: 1
(1: 6.59, 2: 7.67)

----------
Target: recombinant human NUDT5 (Homo sapiens, UniProt Q9UKK9)
Assay: NUDT5 inhibitor activity by malachite green reporter assay
Format: biochemical
Details: Table 3; 6 nM NUDT5, 50 μM ADP-Ribose, 15 minutes at room temperature
Procedure: NUDT5 inhibitors were evaluated using a coupled enzymatic assay with detection of inorganic phosphate (Pi) using the malachite green assay. […] Formation of Pi is quantified based on the green complex (that absorbs at 630 nm) formed between malachite green and molybdate according to published procedure (Baykov, A. A., Evtushenko, O. A. and Avaeva, S. M., Anal Biochem, 171, 266-270 (1988)). […] IC50 values were determined by curve fitting using ExcelFit.
pIC50: −log10 of the molar value.
quantity: pIC50

C=CCN(CC=C)c1nc2c(c(=O)n(C)c(=O)n2C)n1Cc1nnc(-c2ccc(Cl)c(Cl)c2)o1: 6.79
COC(=O)C1CCN(c2nc3c(c(=O)n(C)c(=O)n3C)n2Cc2nnc(-c3ccc(Cl)c(Cl)c3)o2)CC1: 7.49
Cn1c(=O)c2c(nc(N3CC4(COC4)C3)n2Cc2nnc(-c3ccc(Cl)c(Cl)c3)o2)n(C)c1=O: 7.37

a. Cc1cccc(-c2nnc(Cn3c(NCc4ccccc4)nc4c3c(=O)n(C)c(=O)n4C)o2)c1
b. Cn1c(=O)c2c(nc(N3CCC3)n2Cc2nnc(-c3ccc(Cl)c(Cl)c3)o2)n(C)c1=O
c. CNc1nc2c(c(=O)n(C)c(=O)n2C)n1Cc1nnc(-c2ccc(Cl)c(Cl)c2)o1
d. CCCc1nc2c(c(=O)n(C)c(=O)n2C)n1Cc1nnc(-c2ccc(Cl)c(Cl)c2)o1
Request: Reorder the items by pIC50, least to greatest. // rank by listing labels in the order requested
Response: d, a, b, c
(d: 6.61, a: 6.84, b: 7.47, c: 7.90)

a. Cn1c(=O)c2c(nc(S(=O)(=O)C3CCCCC3)n2Cc2nnc(-c3ccc(Cl)c(Cl)c3)o2)n(C)c1=O
b. CN(C)c1nc2c(c(=O)n(C)c(=O)n2C)n1Cc1nnc(-c2ccc(Cl)c(Cl)c2)o1
c. Cn1c(=O)c2c(nc(N3CCCCCC3)n2Cc2nnc(-c3ccc(Cl)c(Cl)c3)o2)n(C)c1=O
d. CCN1CCN(c2nc3c(c(=O)n(C)c(=O)n3C)n2Cc2nnc(-c3cccc(C)c3)o2)CC1
Request: Please rank these compounds by pIC50 in descending order. // ordering of labels required in reply
Response: a, c, b, d
